Here the recorded composite z-score is given for each entry.
- METHOD: COS7 lysate on small-molecule microarray, probe aHis, 635 nm (AID 1123);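 also: z-score combines 667nm fluorescence intensity with signal-to-noise per printed compound spot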
- MEASUREMENT_CONDITIONS: COS7 cell lysate, fluorescence, higher = more signal
Give the value as a plain number.

Lookup: Which measured composite z-score value corresponds to COC(=O)[C@@]1(Cc2ccc(F)cc2)[C@H]2c3cc(C(=O)N4CCCC4)n(Cc4ccc(S(C)(=O)=O)cc4)c3C[C@H]2CN1C(=O)c1ccccc1 ?
Found: 3.34

Lookup: May I ask what composite z-score has been recorded for COCCCNC(=O)[C@]1(CCC(=O)OC(C)(C)C)N=C(c2ccc(OCCCO)cc2)O[C@@H]1c1ccccc1CN=[N+]=[N-] ?
Found: 2.03

Lookup: I would be grateful if you could share the reported composite z-score for C=CC[C@@]1(C(=O)NCCN2CCOCC2)N=C(c2ccc(OCCCO)cc2)O[C@@H]1c1ccccc1N=[N+]=[N-] .
Found: 1.62

Turning now to a further record.
Lookup: composite z-score for C[N+](C)(C)CCCCNC(=O)[C@@H]1C[C@@H]2C(=O)N[C@@H](Cc3ccccc3)C(=O)N2[C@@H]1c1cccc(OCCO)c1 ?
Found: 0.959

All values here come from PubChem BioAssay.
